biological target: D(2) dopamine receptor (Homo sapiens); assay: Displacement of [3H]spiperone from human cloned dopamine D2L receptor at 1 uM
outcomeMeasure: inhibition (%)

A selection of reference data follows.
O=C(NC1CCN(Cc2cccc(Cl)c2)CC1)c1cccc2ccccc12: 0
COc1cccc(CN2CCC(NC(=O)c3cccc4ccccc34)CC2)c1: 0
O=C(NC1CCN(Cc2ccc(Cl)cc2)CC1)c1ccc2ccccc2c1: 15
O=C(NC1CCN(Cc2ccc([N+](=O)[O-])cc2)CC1)c1ccc2ccccc2c1: 0
Cc1cccc(CN2CCC(NC(=O)c3cccc4ccccc34)CC2)c1: 11
O=C(NC1CCN(Cc2cccnc2)CC1)c1ccc2ccccc2c1: 4
O=C(NC1CCN(Cc2c(F)c(F)c(F)c(F)c2F)CC1)c1ccc2ccccc2c1: 0
O=C(NC1CCN(Cc2ccccc2Br)CC1)c1cccc2ccccc12: 8
O=C(NC1CCN(Cc2cccc(Cl)c2)CC1)c1ccc2ccccc2c1: 29

[a] Cc1ccccc1CN1CCC(NC(=O)c2ccc3ccccc3c2)CC1
[b] Cc1ccccc1CN1CCC(NC(=O)c2cccc3ccccc23)CC1
q: Hi! Which is lower in terms of inhibition, the first one a or the second one b ? Refer to your chosen entry by its label in the reply.
a: a
(a: 6%, b: 9%)

###

target: D(2) dopamine receptor (Homo sapiens); experiment: Displacement of [3H]spiperone from human cloned dopamine D2L receptor at 1 uM
outcomeMeasure: inhibition (%)

COc1cccc(CN2CCC(NC(=O)c3ccc4ccccc4c3)CC2)c1: 0
O=C(NC1CCN(Cc2cccc(C(F)(F)F)c2)CC1)c1ccc2ccccc2c1: 9
Cc1ccc(CN2CCC(NC(=O)c3ccc4ccccc4c3)CC2)cc1: 42
O=C(NC1CCN(Cc2ccc(C(F)(F)F)cc2)CC1)c1ccc2ccccc2c1: 0
O=C(NC1CCN(Cc2ccccc2Br)CC1)c1ccc2ccccc2c1: 0

[P] O=C(NC1CCN(Cc2cccc(C(F)(F)F)c2)CC1)c1cccc2ccccc12
[Q] COc1ccc(CN2CCC(NC(=O)c3cccc4ccccc34)CC2)cc1
q: Hi! Which is lower in terms of inhibition, the first one P or the second one Q ? Refer to your chosen entry by its label in the reply.
a: P

###

molecular target: D(4) dopamine receptor (Homo sapiens) (UniProt P21917); experiment: Antagonist activity at dopamine D4.2 receptor assessed as inhibition of dopamine-induced effect at 5 uM; format: functional
Sequence (P21917 whole entry): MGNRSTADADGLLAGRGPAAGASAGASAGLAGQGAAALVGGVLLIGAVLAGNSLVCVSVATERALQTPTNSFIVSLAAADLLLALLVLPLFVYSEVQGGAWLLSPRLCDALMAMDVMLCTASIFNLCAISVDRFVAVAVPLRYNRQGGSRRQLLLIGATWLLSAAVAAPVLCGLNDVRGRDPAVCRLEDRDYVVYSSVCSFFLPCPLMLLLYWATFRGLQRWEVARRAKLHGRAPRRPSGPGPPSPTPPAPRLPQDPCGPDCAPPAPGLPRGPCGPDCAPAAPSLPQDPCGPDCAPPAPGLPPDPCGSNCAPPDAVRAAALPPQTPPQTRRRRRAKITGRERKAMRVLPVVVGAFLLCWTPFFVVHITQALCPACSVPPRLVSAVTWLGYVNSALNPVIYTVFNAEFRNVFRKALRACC
Calls of active or inactive are those of the source. No cut-off for these calls is given here.
outcomeMeasure: Activity

Cc1ccccc1CN1CCC(NC(=O)c2ccc3ccccc3c2)CC1: Active
Cc1cccc(CN2CCC(NC(=O)c3cccc4ccccc34)CC2)c1: Active
O=C(NC1CCN(Cc2ccc(Br)cc2)CC1)c1cccc2ccccc12: Active

###

biological target: D(2) dopamine receptor (Homo sapiens) (UniProt P14416); assay: Displacement of [3H]spiperone from human cloned dopamine D2L receptor at 1 uM
Sequence (P14416 whole entry): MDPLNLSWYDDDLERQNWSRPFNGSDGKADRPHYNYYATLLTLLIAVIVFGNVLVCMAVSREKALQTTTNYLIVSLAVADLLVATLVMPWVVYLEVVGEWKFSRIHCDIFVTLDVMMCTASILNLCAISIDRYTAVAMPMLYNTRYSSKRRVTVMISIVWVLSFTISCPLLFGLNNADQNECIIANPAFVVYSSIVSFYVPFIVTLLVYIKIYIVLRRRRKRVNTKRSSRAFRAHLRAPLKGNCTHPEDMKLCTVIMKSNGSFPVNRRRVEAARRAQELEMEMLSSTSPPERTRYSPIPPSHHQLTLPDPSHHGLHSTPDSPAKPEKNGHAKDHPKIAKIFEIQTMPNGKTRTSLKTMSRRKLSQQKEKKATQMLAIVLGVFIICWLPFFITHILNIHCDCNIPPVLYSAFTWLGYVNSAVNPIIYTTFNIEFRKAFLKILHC
outcomeMeasure: inhibition (%)

O=C(NC1CCN(Cc2c(F)c(F)c(F)c(F)c2F)CC1)c1cccc2ccccc12: 0
O=C(NC1CCN(Cc2ccc(Cl)cc2)CC1)c1cccc2ccccc12: 0
COc1ccc(CN2CCC(NC(=O)c3ccc4ccccc4c3)CC2)cc1: 18
O=C(NC1CCN(Cc2ccccn2)CC1)c1ccc2ccccc2c1: 5
O=C(NC1CCN(Cc2ccccc2Cl)CC1)c1ccc2ccccc2c1: 0

[P] Cc1ccc(CN2CCC(NC(=O)c3cccc4ccccc34)CC2)cc1
[Q] O=C(NC1CCN(Cc2ccc([N+](=O)[O-])cc2)CC1)c1cccc2ccccc12
[R] O=C(NC1CCN(Cc2ccc(Br)cc2)CC1)c1cccc2ccccc12
q: Task for the reader: rank each entry by its inhibition, from the minimum upward. Respond with an ordered listing of the labels, as requested.
a: Q, R, P
(Q: 0%, R: 4%, P: 13%)

[a] Cc1cccc(CN2CCC(NC(=O)c3ccc4ccccc4c3)CC2)c1
[b] O=C(NC1CCN(Cc2ccncc2)CC1)c1ccc2ccccc2c1
q: Hi! Which is lower in terms of inhibition, the first one a or the second one b ? Refer to your chosen entry by its label in the reply.
a: b

###

Read-out record for 5-hydroxytryptamine receptor 2A (Rattus norvegicus): Ki
outcomeMeasure: Ki (nM)

[a] O=C(NC1CCN(Cc2ccc(Br)cc2)CC1)c1ccc2ccccc2c1
[b] Cc1cccc(CN2CCC(NC(=O)c3ccc4ccccc4c3)CC2)c1
q: Endpoint returns whichever of a and b has the numerically higher Ki. Refer to your chosen entry by its label in the reply.
a: a
(a: 223 nM, b: 87 nM)

[1] COc1cccc(CN2CCC(NC(=O)c3ccc4ccccc4c3)CC2)c1
[2] O=C(NC1CCN(Cc2cccc(Br)c2)CC1)c1ccc2ccccc2c1
q: Hi! Which is lower in terms of Ki, the first one 1 or the second one 2 ? Refer to your chosen entry by its label in the reply.
a: 2
(2: 53 nM, 1: 158 nM)

[P] Cc1ccc(CN2CCC(NC(=O)c3ccc4ccccc4c3)CC2)cc1
[Q] O=C(NC1CCN(Cc2cccc(Br)c2)CC1)c1cccc2ccccc12
q: Endpoint returns whichever of P and Q has the numerically higher Ki. Refer to your chosen entry by its label in the reply.
a: Q

###

target: D(4) dopamine receptor (Homo sapiens) (UniProt P21917); assay: Displacement of [3H]nemonapride from human cloned dopamine D4.2 receptor at 1 uM
outcomeMeasure: inhibition (%)

A selection of reference data follows.
O=C(NC1CCN(Cc2ccccc2Cl)CC1)c1ccc2ccccc2c1: 48
O=C(NC1CCN(Cc2ccccc2Br)CC1)c1ccc2ccccc2c1: 31
O=C(NC1CCN(Cc2c(F)c(F)c(F)c(F)c2F)CC1)c1cccc2ccccc12: 0
O=C(NC1CCN(Cc2ccc([N+](=O)[O-])cc2)CC1)c1cccc2ccccc12: 42
O=C(NC1CCN(Cc2ccncc2)CC1)c1ccc2ccccc2c1: 32

[P] O=C(NC1CCN(Cc2ccccc2Br)CC1)c1cccc2ccccc12
[Q] O=C(NC1CCN(Cc2c(F)c(F)c(F)c(F)c2F)CC1)c1ccc2ccccc2c1
q: Endpoint returns whichever of P and Q has the numerically higher inhibition. Refer to your chosen entry by its label in the reply.
a: P

The reported numbers originate from ChEMBL document CHEMBL1146384.
